# Assay Target: SARS-CoV-2 Spike on pseudotyped virus (PsV) (SARS-CoV-2, UniProt P0DTC2 14-1273)
# Test Details: cell-based or functional assay
Endpoint Label: Median IC50, SARS-CoV-2 PsV neutralization (µg/mL)
Response body: numeric value in µg/mL, unit text excluded.

Suppose we examine the binder mAb 324 (antibody, V domains shown) VH: QVQLVQSGAEVKKPGASVKVSCKASGGTFNNYGISWVRQAPGQGLEWMGWMNPNSGNTGYAQKFQGRVTMTRDTSTSTVYMELSSLRSEDTAVYYCARVGDYGDYIVSPFDLWGRGTLVTVSS VL: DIQMTQSPSSLSASVGDRVTITCRASQSITTYLNWYQQKPGKAPKLLIYDASNLETGVPSRFSGSGSGTDFTLTISSLQPEDFATYYCQQSYSTPPTFGQGTKVEIKR ; what Median IC50, SARS-CoV-2 PsV neutralization value has been reported?
0.78

From: patent US20250263469A1
